Listing of recorded logP by entry.
experiment_description: physchem
measurement_parameters: pH 2.3
test_readout: logP

> print(dat)
                                    compound  test.readout  reading
 1    CCN(C)C=Nc1cc(C)c(Oc2nc(C3CC3)ns2)cc1C          logP     1.59
 2  CCC1(c2nsc(Oc3cc(C)c(/N=C/N4CCCCC4)cc3C)n2)C(C)C1(Cl)Cl (stereo not shown)          logP     2.35
 3  Cc1cc(Oc2nc(C3(Cl)CC3)ns2)c(C)cc1N=CN(C)C          logP     1.52
 4  CCN(C)C=Nc1cc(C)c(Oc2nc(C3(Cl)CC3)c(Cl)s2)cc1C          logP     1.82
 5  Cc1cc(Oc2nc(C3(Cl)CC3)ns2)c(C)cc1N=CN(C)C(C)C          logP     2.01
 6  CCN(C)C=Nc1cc(C)c(Oc2nc(C3CC3C)ns2)cc1C (stereo not shown)          logP     1.96
 7  Cc1cc(Oc2nc(C3CC3)ns2)c(C)cc1N=CN(C)C(C)C          logP     1.91
 8  Cc1cc(Oc2nc(C3(Cl)CC3)ns2)c(C)cc1/N=C/N1CCCCC1          logP     1.76
 9  Cc1cc(Oc2nc(C3(Cl)CC3)c(Cl)s2)c(C)cc1N=CN(C)C(C)C          logP     2.22
10         Cc1cc(Oc2nc(C3(C)CC3)ns2)c(C)cc1N          logP     3.08

====

experiment_description: log P determination (neutral / acidic, pH 2.3)
measurement_parameters: acidic
test_readout: log P acidic

> print(dat)
                  compound.structure.string  test.readout  reading
1  Cc1cc(Oc2nc(C3CC3)ns2)c(C)cc1/N=C/N1CCCCC1  log P acidic     1.75
2  Cc1cc(Oc2nc(C3(C)CC3)cs2)c(C)cc1/N=C/N1CCCCC1  log P acidic     2.05
3  Cc1cc(Oc2nc(C3CC3)ns2)c(C)cc1/N=C/N1CCSCC1  log P acidic     1.73
4  Cc1cc(Oc2nc(C3(C)CC3)ns2)c(C)cc1/N=C/N1CCCCC1  log P acidic     2.13

====

experiment_description: physchem
Quick list: logP per entry.
test_readout: logP

> print(dat)
                                   compound  reading
1  Cc1cc(Oc2nc(C3(Cl)CC3)c(Cl)s2)c(C)cc1N=CN(C)C(C)C [Compound 17]     5.86
2  Cc1cc(Oc2nc(C3(Cl)CC3)c(Cl)s2)c(C)cc1/N=C/N1CCCCC1 [Compound 8]     6.02
3  CCN(C)C=Nc1cc(C)c(Oc2nc(C3(F)CC3)c(Cl)s2)cc1C [Compound 30]     5.08
4  CCN(C)C=Nc1cc(C)c(Oc2nc(C3(C)CC3)c(Cl)s2)cc1C [Compound 21]        6
5  CCN(C)C=Nc1cc(C)c(Oc2nc(C3(C)CC3)cs2)cc1C [Compound 22]     4.96
6  CCN(C)C=Nc1cc(C)c(Oc2nc(C3(Cl)CC3)cs2)cc1C [Compound 5]      4.8
7  CCN(C)C=Nc1cc(C)c(Oc2nc(C3(F)CC3)cs2)cc1C [Compound 29]     4.38

====

Listed below: pest or weed control at 500 ppm values for each entry.
System: Alternaria solani
experiment_description: Alternaria test (tomato)/protective
Assay type: in vivo
measurement_parameters: 168 h, 500 ppm active substance, protective, evaluation 7 days after inoculation, read-out: degree of effectiveness
test_readout: pest or weed control at 500 ppm

> print(dat)
                                    molecule                     test.readout  reading
 1  Cc1cc(Oc2nc(C3CC3C)ns2)c(C)cc1N=CN(C)C(C)C (stereo not shown) [Compound 15]  pest or weed control at 500 ppm    ≥ 70%
 2  Cc1cc(Oc2nc(C3CC3C)ns2)c(C)cc1N=CN(C)C (stereo not shown) [Compound 20]  pest or weed control at 500 ppm    ≥ 70%
 3  CCN(C)C=Nc1cc(C)c(Oc2nc(C3(Cl)CC3)c(Cl)s2)cc1C [Compound 7]  pest or weed control at 500 ppm    ≥ 70%
 4  CCN(C)C=Nc1cc(C)c(Oc2nc(C3(C)CC3(Cl)Cl)ns2)cc1C (stereo not shown) [Compound 25]  pest or weed control at 500 ppm    ≥ 70%
 5  Cc1cc(Oc2nc(C3(Cl)CC3)ns2)c(C)cc1N=CN(C)C [Compound 19]  pest or weed control at 500 ppm    ≥ 70%
 6  Cc1cc(Oc2nc(C3(Cl)CC3)ns2)c(C)cc1N=CN(C)C(C)C [Compound 18]  pest or weed control at 500 ppm    ≥ 70%
 7  Cc1cc(Oc2nc(C3(C)CC3(Cl)Cl)ns2)c(C)cc1/N=C/N1CCCCC1 (stereo not shown) [Compound 26]  pest or weed control at 500 ppm    ≥ 70%
 8  CCN(C)C=Nc1cc(Cl)c(Oc2nc(C3(Cl)CC3)ns2)cc1C [Compound 33]  pest or weed control at 500 ppm    ≥ 70%
 9  CCN(C)C=Nc1cc(C)c(Oc2nc(C3(C)CC3)c(Cl)s2)cc1C [Compound 21]  pest or weed control at 500 ppm    ≥ 70%
10  CCN(C)C=Nc1cc(C)c(Oc2nc(C3CC3)ns2)cc1C [Compound 1]  pest or weed control at 500 ppm    ≥ 70%
11  Cc1cc(Oc2nc(C3CC3)ns2)c(C)cc1N=CN(C)C(C)C [Compound 2]  pest or weed control at 500 ppm    ≥ 70%
12  Cc1cc(Oc2nc(C3CC3C)ns2)c(C)cc1/N=C/N1CCCCC1 (stereo not shown) [Compound 16]  pest or weed control at 500 ppm    ≥ 70%
13  CCN(C)C=Nc1cc(C)c(Oc2nc(C3(C)CC3)cs2)cc1C [Compound 22]  pest or weed control at 500 ppm    ≥ 70%
14  CCN(C)C=Nc1cc(C)c(Oc2nc(C3(C)CC3)ns2)cc1C [Compound 9]  pest or weed control at 500 ppm    ≥ 70%
15  CCN(C)C=Nc1cc(C)c(Oc2nc(C3(Cl)CC3)cs2)cc1C [Compound 5]  pest or weed control at 500 ppm    ≥ 70%
16  CCN(C)C=Nc1cc(C)c(Oc2nc(C3(F)CC3)cs2)cc1C [Compound 29]  pest or weed control at 500 ppm    ≥ 70%
17  Cc1cc(Oc2nc(C3(C)CC3)c(Cl)s2)c(C)cc1/N=C/N1CCCCC1 [Compound 24]  pest or weed control at 500 ppm    ≥ 70%
18  Cc1cc(Oc2nc(C3(Cl)CC3)c(Cl)s2)c(C)cc1/N=C/N1CCCCC1 [Compound 8]  pest or weed control at 500 ppm    ≥ 70%
19  CCN(C)C=Nc1cc(C)c(Oc2nc(C3CC3C)ns2)cc1C (stereo not shown) [Compound 14]  pest or weed control at 500 ppm    ≥ 70%

====

// logP lookup, one value per entry
experiment_description: physchem
measurement_parameters: pH 2.3
test_readout: logP

> print(dat)
                                    molecule  test.readout  reading
 1  CCN(C)C=Nc1cc(C)c(Oc2nc(C3(F)CC3)c(Cl)s2)cc1C          logP     1.92
 2  CCN(C)C=Nc1cc(C)c(Oc2nc(C3(CC)C(C)C3(Cl)Cl)ns2)cc1C (stereo not shown)          logP     2.21
 3  CCN(C)C=Nc1cc(C)c(Oc2nc(C3(C)CC3)cs2)cc1C          logP     1.86
 4  Cc1cc(Oc2nc(C3(C)CC3(Cl)Cl)ns2)c(C)cc1/N=C/N1CCCCC1 (stereo not shown)          logP     2.08
 5  CCN(C)C=Nc1cc(C)c(Oc2nc(C3(C)CC3)c(Cl)s2)cc1C          logP     1.97
 6  Cc1cc(Oc2nc(C3(Cl)CC3)c(Cl)s2)c(C)cc1/N=C/N1CCCCC1          logP     2.47
 7  Cc1cc(Oc2nc(C3(C)CC3)c(Cl)s2)c(C)cc1/N=C/N1CCCCC1          logP     2.34
 8  Cc1cc(Oc2nc(C3CC3C)ns2)c(C)cc1N=CN(C)C (stereo not shown)          logP     1.62
 9  CCN(C)C=Nc1cc(C)c(Oc2nc(C3(Cl)CC3)ns2)cc1C          logP     1.59
10  CCN(C)C=Nc1cc(C)c(Oc2nc(C3(C)CC3(Cl)Cl)ns2)cc1C (stereo not shown)          logP     2.03
11  Cc1cc(Oc2nc(C3CC3C)ns2)c(C)cc1N=CN(C)C(C)C (stereo not shown)          logP     1.74
12  Cc1cc(Oc2nc(C3(Cl)CC3)ns2)c(Cl)cc1/N=C/N1CCCCC1          logP     1.98
13  CCN(C)C=Nc1cc(C)c(Oc2nc(C3(C)CC3)ns2)cc1C          logP     1.94
14  CCN(C)C=Nc1cc(Cl)c(Oc2nc(C3(Cl)CC3)ns2)cc1C          logP     1.72
15  CCN(C)C=Nc1cc(C)c(Oc2nc(C3(F)CC3)cs2)cc1C          logP     1.58
16  Cc1cc(Oc2nc(C3(C)CC3)ns2)c(C)cc1/N=C/N1CCC1          logP      1.6
17  Cc1cc(Oc2nc(C3CC3C)ns2)c(C)cc1/N=C/N1CCC1 (stereo not shown)          logP     1.96
18  Cc1cc(Oc2nc(C3CC3C)ns2)c(C)cc1/N=C/N1CCCCC1 (stereo not shown)          logP     1.78
19  Cc1cc(Oc2nc(C3(C)CC3)ns2)c(C)cc1N=CN(C)C(C)C          logP     2.03
